# assay-protocol: Growth inhibition of H292 cells by SRB assay in presence of dipyridamole
# Type: functional, cell-based
# test-parameters: Homo sapiens, NCI-H292
Entries annotated with measured pIC50
Scale: negative log10 of molar concentration, which is what pIC50 denotes.

Just so you know, measured pIC50 for CN(CCCCCl)P(=O)(OCc1ccc([N+](=O)[O-])o1)OC[C@H]1O[C@@H](n2ccc(N)nc2=O)C(F)(F)[C@@H]1O (some centres not stated) came out at 6.48

Just so you know, measured pIC50 for Nc1ccn([C@@H]2O[C@H](CO)[C@@H](O)C2(F)F)c(=O)n1 [GEMCITABINE] came out at 6.68
